GI50: recorded values
- Test system: HCT-116
- ASSAY REMARKS: cells
- CONDITIONS USED: Homo sapiens, HCT-116, 48 h

[
  {
    "COMPOUND": "Cc1ccc(C2CC(c3ccc(Nc4nc(NCCO)nc(Nc5ccc(Cl)cc5)n4)cc3)=Nc3c(N)nc(N)nc3N2)cc1 (centres unmarked) [33b]",
    "RESULT UNITS": "nM",
    "GI50": 1620
  },
  {
    "COMPOUND": "CN(C)c1nc(NCCNS(=O)(=O)c2ccc(C(=O)/C=C/c3ccc(F)cc3)cc2)nc(N2CCOCC2)n1 [23f]",
    "RESULT UNITS": "nM",
    "GI50": 2290
  },
  {
    "COMPOUND": "CN(C)c1nc(NCCNS(=O)(=O)c2ccc(C(=O)/C=C/c3ccc(Cl)cc3)cc2)nc(N2CCOCC2)n1 [23e]",
    "RESULT UNITS": "nM",
    "GI50": 11700
  },
  {
    "COMPOUND": "COc1cc(C2CC(c3ccc(Cl)cc3)=Nc3c(N)nc(N)nc3N2)ccc1Oc1nc(Nc2ccc(F)cc2)nc(N(C)C)n1 (centres unmarked) [29e]",
    "RESULT UNITS": "nM",
    "GI50": 12500
  },
  {
    "COMPOUND": "COc1cc(C2CC(c3ccc(C(F)(F)F)cc3)=Nc3c(N)nc(N)nc3N2)ccc1Oc1nc(Nc2ccc(F)cc2)nc(N(C)C)n1 (centres unmarked) [29g]",
    "RESULT UNITS": "nM",
    "GI50": 1760
  },
  {
    "COMPOUND": "CN(C)c1nc(NCCNS(=O)(=O)c2ccc(C(=O)/C=C/c3ccc(C(F)(F)F)cc3)cc2)nc(Nc2ccc(F)cc2)n1 [24g]",
    "RESULT UNITS": "nM",
    "GI50": 1680
  },
  {
    "COMPOUND": "Nc1nc(N)c2c(n1)NC(c1ccc(Cl)cc1)CC(c1ccc(Nc3nc(NCCO)nc(Nc4ccc(Cl)cc4)n3)cc1)=N2 (centres unmarked) [33e]",
    "RESULT UNITS": "nM",
    "GI50": 1400
  },
  {
    "COMPOUND": "COc1cc(/C=C/C(=O)c2cc(OC)c(OC)c(OC)c2)ccc1Oc1nc(Nc2ccc(F)cc2)nc(N(C)C)n1 [21d]",
    "RESULT UNITS": "nM",
    "GI50": 1400
  },
  {
    "COMPOUND": "Cc1ccc(C2CC(c3ccc(S(=O)(=O)NCCNc4nc(Nc5ccc(F)cc5)nc(N(C)C)n4)cc3)=Nc3c(N)nc(N)nc3N2)cc1 (centres unmarked) [31b]",
    "RESULT UNITS": "nM",
    "GI50": 3810
  },
  {
    "COMPOUND": "CN(C)c1nc(NCCNS(=O)(=O)c2ccc(C(=O)/C=C/c3ccc(Cl)cc3)cc2)nc(Nc2ccc(F)cc2)n1 [24e]",
    "RESULT UNITS": "nM",
    "GI50": 1660
  },
  {
    "COMPOUND": "CN(C)c1nc(NCCNS(=O)(=O)c2ccc(C3=Nc4c(N)nc(N)nc4NC(c4ccc(Cl)cc4)C3)cc2)nc(Nc2ccc(F)cc2)n1 (centres unmarked) [31e]",
    "RESULT UNITS": "nM",
    "GI50": 3770
  },
  {
    "COMPOUND": "COc1cc(/C=C/C(=O)c2ccc(S(=O)(=O)NCCNc3nc(Nc4ccc(F)cc4)nc(N(C)C)n3)cc2)cc(OC)c1OC [24d]",
    "RESULT UNITS": "nM",
    "GI50": 1770
  },
  {
    "COMPOUND": "CN(C)c1nc(NCCNS(=O)(=O)c2ccc(C(=O)/C=C/c3ccccc3)cc2)nc(N2CCOCC2)n1 [23a]",
    "RESULT UNITS": "nM",
    "GI50": 1820
  },
  {
    "COMPOUND": "COc1cc(/C=C/C(=O)c2ccc(S(=O)(=O)NCCNc3nc(N(C)C)nc(N4CCOCC4)n3)cc2)cc(OC)c1OC [23d]",
    "RESULT UNITS": "nM",
    "GI50": 1560
  }
]

---

- ASSAY REMARKS: Hemolytic activity, spectrophotometric
- Assay type: cell-based, human
- CONDITIONS USED: human, human red blood cells (huRBC), 5% hematocrit, 200 μg/mL, 37 °C
hemolysis at 24 h, 200 µg/mL: recorded values
PROPERTY: hemolysis at 24 h, 200 µg/mL (%)

[
  {
    "MOLECULE": "COc1cc(C2CC(c3ccc(Cl)cc3)=Nc3c(N)nc(N)nc3N2)ccc1Oc1nc(NCCO)nc(N2CCOCC2)n1 (stereo not shown) [28e]",
    "PROPERTY": "hemolysis at 24 h, 200 µg/mL",
    "VALUE MEASURED": 5
  },
  {
    "MOLECULE": "Nc1nc(N)c2c(n1)NC(c1ccc(F)cc1)CC(c1ccc(Nc3nc(NCCO)nc(Nc4ccc(Cl)cc4)n3)cc1)=N2 (stereo not shown) [33f]",
    "PROPERTY": "hemolysis at 24 h, 200 µg/mL",
    "VALUE MEASURED": 5
  },
  {
    "MOLECULE": "Cc1ccc(C2CC(c3ccc(S(=O)(=O)NCCNc4nc(Nc5ccc(F)cc5)nc(N(C)C)n4)cc3)=Nc3c(N)nc(N)nc3N2)cc1 (stereo not shown) [31b]",
    "PROPERTY": "hemolysis at 24 h, 200 µg/mL",
    "VALUE MEASURED": 1.7
  },
  {
    "MOLECULE": "COc1cc(/C=C/C(=O)c2cc(OC)c(OC)c(OC)c2)ccc1Oc1nc(Nc2ccc(F)cc2)nc(N(C)C)n1 [21d]",
    "PROPERTY": "hemolysis at 24 h, 200 µg/mL",
    "VALUE MEASURED": 8
  },
  {
    "MOLECULE": "CN(C)c1nc(NCCNS(=O)(=O)c2ccc(C3=Nc4c(N)nc(N)nc4NC(c4ccc(C(F)(F)F)cc4)C3)cc2)nc(Nc2ccc(F)cc2)n1 (stereo not shown) [31g]",
    "PROPERTY": "hemolysis at 24 h, 200 µg/mL",
    "VALUE MEASURED": 3
  },
  {
    "MOLECULE": "CN(C)c1nc(NCCNS(=O)(=O)c2ccc(C3=Nc4c(N)nc(N)nc4NC(c4ccc(Cl)cc4)C3)cc2)nc(Nc2ccc(F)cc2)n1 (stereo not shown) [31e]",
    "PROPERTY": "hemolysis at 24 h, 200 µg/mL",
    "VALUE MEASURED": 2.3
  },
  {
    "MOLECULE": "COc1cc(/C=C/C(=O)c2ccc(F)cc2)ccc1Oc1nc(Nc2ccc(F)cc2)nc(N(C)C)n1 [21f]",
    "PROPERTY": "hemolysis at 24 h, 200 µg/mL",
    "VALUE MEASURED": 0.8
  }
]

---

- ASSAY REMARKS: Hemolytic activity, spectrophotometric
- Format: cell-based, human
- CONDITIONS USED: human, human red blood cells (huRBC), 5% hematocrit, 200 μg/mL, 37 °C
hemolysis at 24 h, 200 µg/mL: recorded values

[
  {
    "COMPOUND": "COc1cc(/C=C/C(=O)c2ccc(S(=O)(=O)NCCNc3nc(N(C)C)nc(N4CCOCC4)n3)cc2)cc(OC)c1OC [23d]",
    "RESULT UNITS": "%",
    "hemolysis at 24 h, 200 µg/mL": 0.2
  },
  {
    "COMPOUND": "CN(C)c1nc(NCCNS(=O)(=O)c2ccc(C3=Nc4c(N)nc(N)nc4NC(c4ccccc4)C3)cc2)nc(N2CCOCC2)n1 (centres unmarked) [30a]",
    "RESULT UNITS": "%",
    "hemolysis at 24 h, 200 µg/mL": 0.6
  },
  {
    "COMPOUND": "Cc1ccc(/C=C/C(=O)c2ccc(S(=O)(=O)NCCNc3nc(Nc4ccc(F)cc4)nc(N(C)C)n3)cc2)cc1 [24b]",
    "RESULT UNITS": "%",
    "hemolysis at 24 h, 200 µg/mL": 1.2
  },
  {
    "COMPOUND": "CC(=O)c1ccc(S(=O)(=O)NCCNc2nc(N(C)C)nc(N3CCOCC3)n2)cc1",
    "RESULT UNITS": "%",
    "hemolysis at 24 h, 200 µg/mL": 1.6
  },
  {
    "COMPOUND": "COc1cc(/C=C/C(=O)c2ccc(S(=O)(=O)NCCNc3nc(Nc4ccc(F)cc4)nc(N(C)C)n3)cc2)cc(OC)c1OC [24d]",
    "RESULT UNITS": "%",
    "hemolysis at 24 h, 200 µg/mL": 2.3
  },
  {
    "COMPOUND": "COc1ccc(C2CC(c3ccc(Nc4nc(NCCO)nc(Nc5ccc(Cl)cc5)n4)cc3)=Nc3c(N)nc(N)nc3N2)cc1 (centres unmarked) [33c]",
    "RESULT UNITS": "%",
    "hemolysis at 24 h, 200 µg/mL": 5
  },
  {
    "COMPOUND": "COc1cc(/C=C/C(=O)c2ccccc2)ccc1Oc1nc(Nc2ccc(F)cc2)nc(N(C)C)n1 [21a]",
    "RESULT UNITS": "%",
    "hemolysis at 24 h, 200 µg/mL": 2
  },
  {
    "COMPOUND": "Cc1ccc(C2CC(c3ccc(Nc4nc(NCCO)nc(N5CCOCC5)n4)cc3)=Nc3c(N)nc(N)nc3N2)cc1 (centres unmarked) [32b]",
    "RESULT UNITS": "%",
    "hemolysis at 24 h, 200 µg/mL": 1
  },
  {
    "COMPOUND": "Nc1nc(N)c2c(n1)NC(c1ccc(F)cc1)CC(c1ccc(Nc3nc(NCCO)nc(N4CCOCC4)n3)cc1)=N2 (centres unmarked) [32f]",
    "RESULT UNITS": "%",
    "hemolysis at 24 h, 200 µg/mL": 5
  },
  {
    "COMPOUND": "COc1cc(C2CC(c3ccc(F)cc3)=Nc3c(N)nc(N)nc3N2)ccc1Oc1nc(Nc2ccc(F)cc2)nc(N(C)C)n1 (centres unmarked) [29f]",
    "RESULT UNITS": "%",
    "hemolysis at 24 h, 200 µg/mL": 0
  },
  {
    "COMPOUND": "COc1cc(C2CC(c3ccccc3)=Nc3c(N)nc(N)nc3N2)ccc1Oc1nc(Nc2ccc(F)cc2)nc(N(C)C)n1 (centres unmarked) [29a]",
    "RESULT UNITS": "%",
    "hemolysis at 24 h, 200 µg/mL": 3
  },
  {
    "COMPOUND": "COc1cc(/C=C/C(=O)c2ccc(C)cc2)ccc1Oc1nc(Nc2ccc(F)cc2)nc(N(C)C)n1 [21b]",
    "RESULT UNITS": "%",
    "hemolysis at 24 h, 200 µg/mL": 13
  },
  {
    "COMPOUND": "CN(C)c1nc(NCCNS(=O)(=O)c2ccc(C3=Nc4c(N)nc(N)nc4NC(c4ccc(F)cc4)C3)cc2)nc(Nc2ccc(F)cc2)n1 (centres unmarked) [31f]",
    "RESULT UNITS": "%",
    "hemolysis at 24 h, 200 µg/mL": 2.4
  },
  {
    "COMPOUND": "COc1cc(/C=C/C(=O)c2ccc(C)cc2)ccc1Oc1nc(NCCO)nc(N2CCOCC2)n1 [20b]",
    "RESULT UNITS": "%",
    "hemolysis at 24 h, 200 µg/mL": 3.3
  },
  {
    "COMPOUND": "Nc1nc(N)c2c(n1)NC(c1ccc(C(F)(F)F)cc1)CC(c1ccc(Nc3nc(NCCO)nc(N4CCOCC4)n3)cc1)=N2 (centres unmarked) [32g]",
    "RESULT UNITS": "%",
    "hemolysis at 24 h, 200 µg/mL": 2
  },
  {
    "COMPOUND": "COc1cc(C2CC(c3cc(OC)c(OC)c(OC)c3)=Nc3c(N)nc(N)nc3N2)ccc1Oc1nc(NCCO)nc(N2CCOCC2)n1 (centres unmarked) [28d]",
    "RESULT UNITS": "%",
    "hemolysis at 24 h, 200 µg/mL": 1
  },
  {
    "COMPOUND": "COc1cc(C2CC(c3ccc(S(=O)(=O)NCCNc4nc(N(C)C)nc(N5CCOCC5)n4)cc3)=Nc3c(N)nc(N)nc3N2)cc(OC)c1OC (centres unmarked) [30d]",
    "RESULT UNITS": "%",
    "hemolysis at 24 h, 200 µg/mL": 11
  }
]
